# system tested: HLA-A*26:01
# assay protocol: IEDB peptide-MHC binding, purified MHC/competitive/fluorescence; filed as Kd, often an IC50 or EC50 that approximates it; bounds were set here for any values at or beyond the usual limits of such assays
# conditions: source organism: Influenza A virus (A/Quail/Shanghai/8/96(H9N2))

{"record sequence": "LVGGREWSY", "Kd": "≥ 20 µM"}

====

# system tested: HLA-A*25:01
# assay protocol: IEDB peptide-MHC binding, purified MHC/competitive/fluorescence; filed as Kd, often an IC50 or EC50 that approximates it; bounds were set here for any values at or beyond the usual limits of such assays
# conditions: source organism: Giardia lamblia ATCC 50803

{"record sequence": "KVSWRWMVY", "Kd": "≥ 20 µM"}

====

# system tested: HLA-A*23:01
# assay protocol: IEDB peptide-MHC binding, purified MHC/direct/fluorescence; filed as Kd, often an IC50 or EC50 that approximates it; bounds were set here for any values at or beyond the usual limits of such assays
# conditions: source organism: Vibrio vulnificus CMCP6
pKd: −log10 of the molar value.

{"record sequence": "PYWQGIWDK", "pKd": 8.22}

====

# system tested: HLA-B*27:05
# assay protocol: IEDB peptide-MHC binding, purified MHC/direct/fluorescence; filed as Kd, often an IC50 or EC50 that approximates it; bounds were set here for any values at or beyond the usual limits of such assays
# conditions: source organism: Influenza A virus (A/chicken/Vietnam/393/2005(H5N1))
measured attribute: Kd

{"record sequence": "VLTGNLQTL", "system tested": "HLA-B*27:05", "assay value": "≥ 20 µM"}

====

# system tested: HLA-B*15:09
# assay protocol: IEDB peptide-MHC binding, purified MHC/direct/fluorescence; filed as Kd, often an IC50 or EC50 that approximates it; bounds were set here for any values at or beyond the usual limits of such assays
# conditions: source organism: Bacillus cereus H3081.97
pKd: −log10 of the molar value.

{"record sequence": "EHFLGIWGL", "pKd": 7.03}

====

# system tested: HLA-B*07:02
# assay protocol: IEDB peptide-MHC binding, purified MHC/direct/fluorescence; filed as Kd, often an IC50 or EC50 that approximates it; bounds were set here for any values at or beyond the usual limits of such assays
# conditions: source organism: SARS-CoV1
measured attribute: Kd

{"record sequence": "FPREGVFVF", "assay value": "0.131 µM"}

====

# system tested: HLA-B*39:01
# assay protocol: IEDB peptide-MHC binding, purified MHC/competitive/fluorescence; filed as Kd, often an IC50 or EC50 that approximates it; bounds were set here for any values at or beyond the usual limits of such assays
# conditions: source organism: Coxiella burnetii RSA 331
pKd: −log10 of the molar value.

{"record sequence": "HMNKLPLAK", "system tested": "HLA-B*39:01", "pKd": "≤ 4.70"}

====

# system tested: HLA-A*02:19
# assay protocol: IEDB peptide-MHC binding, purified MHC/competitive/fluorescence; filed as Kd, often an IC50 or EC50 that approximates it; bounds were set here for any values at or beyond the usual limits of such assays
# conditions: source organism: Deerpox virus W-848-83
measured attribute: Kd

{"record sequence": "YVAGITLTH", "measured attribute": "Kd", "assay value": "≥ 20 µM"}

====

# system tested: HLA-B*39:01
# assay protocol: IEDB peptide-MHC binding, purified MHC/direct/fluorescence; filed as Kd, often an IC50 or EC50 that approximates it; bounds were set here for any values at or beyond the usual limits of such assays
# conditions: source organism: H9N2 subtype Influenza A virus (A/swine/Korea/S83/2004(H9N2))
pKd: −log10 of the molar value.

{"record sequence": "HFQKDAKVL", "pKd": 4.98}

====

# system tested: HLA-A*69:01
# assay protocol: IEDB peptide-MHC binding, purified MHC/competitive/fluorescence; filed as Kd, often an IC50 or EC50 that approximates it; bounds were set here for any values at or beyond the usual limits of such assays
# conditions: source organism: Mycobacterium tuberculosis variant bovis BCG str. Pasteur 1173P2
pKd: −log10 of the molar value.

{"record sequence": "RLAPEPVYT", "pKd": "≤ 4.70"}

====

# system tested: HLA-B*51:01
# assay protocol: IEDB peptide-MHC binding, purified MHC/competitive/fluorescence; filed as Kd, often an IC50 or EC50 that approximates it; bounds were set here for any values at or beyond the usual limits of such assays
# conditions: source organism: Entamoeba dispar SAW760
Each item that follows carries a reported Kd.

{"record sequence": "LVGNTLTTC", "Kd": "≥ 20 µM"}
{"record sequence": "FELLHFISS", "Kd": "≥ 20 µM"}

====

# system tested: HLA-A*31:01
# assay protocol: IEDB peptide-MHC binding, purified MHC/competitive/radioactivity; filed as Kd, often an IC50 or EC50 that approximates it; bounds were set here for any values at or beyond the usual limits of such assays
# conditions: source organism: Lassa virus Josiah
measured attribute: Kd

{"record sequence": "TLTNTSIINH", "measured attribute": "Kd", "assay value": "≥ 59.8 µM"}

====

# system tested: HLA-A*02:11
# assay protocol: IEDB peptide-MHC binding, purified MHC/direct/fluorescence; filed as Kd, often an IC50 or EC50 that approximates it; bounds were set here for any values at or beyond the usual limits of such assays
# conditions: source organism: Orthohantavirus andesense

{"record sequence": "VWKQLFPEL", "system tested": "HLA-A*02:11", "Kd": "≥ 20 µM"}

====

# system tested: HLA-B*08:02
# assay protocol: IEDB peptide-MHC binding, purified MHC/direct/fluorescence; filed as Kd, often an IC50 or EC50 that approximates it; bounds were set here for any values at or beyond the usual limits of such assays
# conditions: source organism: Mycobacterium tuberculosis C
pKd: −log10 of the molar value.

{"record sequence": "KPARGGSSI", "pKd": "≤ 4.70"}

====

# system tested: HLA-B*48:01
# assay protocol: IEDB peptide-MHC binding, purified MHC/direct/fluorescence; filed as Kd, often an IC50 or EC50 that approximates it; bounds were set here for any values at or beyond the usual limits of such assays
# conditions: source organism: Giardia intestinalis
pKd: −log10 of the molar value.
measured attribute: pKd

{"record sequence": "INTLESMMK", "system tested": "HLA-B*48:01", "assay value": "≤ 4.70"}

====

# system tested: HLA-B*45:01
# assay protocol: IEDB peptide-MHC binding, purified MHC/competitive/radioactivity; filed as Kd, often an IC50 or EC50 that approximates it; bounds were set here for any values at or beyond the usual limits of such assays
# conditions: source organism: Mammarenavirus lassaense
pKd: −log10 of the molar value.
Entries and their measured pKd follow.

{"record sequence": "AEFKSRFFVW", "system tested": "HLA-B*45:01", "qualifier sign": "=", "pKd": 7.29}
{"record sequence": "REVGDTSSDL", "system tested": "HLA-B*45:01", "qualifier sign": "≤", "pKd": 4.15}
{"record sequence": "EELITDTEFL", "system tested": "HLA-B*45:01", "qualifier sign": "=", "pKd": 4.91}

====

# system tested: HLA-A*02:01
# assay protocol: IEDB peptide-MHC binding, purified MHC/direct/fluorescence; filed as Kd, often an IC50 or EC50 that approximates it; bounds were set here for any values at or beyond the usual limits of such assays
# conditions: source organism: Mycolicibacterium gilvum

{"record sequence": "PHDPDFLVL", "Kd": "≥ 20 µM"}

====

# system tested: HLA-B*07:02
# assay protocol: IEDB peptide-MHC binding, purified MHC/competitive/radioactivity; filed as Kd, often an IC50 or EC50 that approximates it; bounds were set here for any values at or beyond the usual limits of such assays
# conditions: source organism: SARS coronavirus Tor2
measured attribute: Kd (nM)

{"record sequence": "MPNMLRIMA", "quantity unit": "nM", "assay value": 9.8}

====

# system tested: HLA-B*44:02
# assay protocol: IEDB peptide-MHC binding, purified MHC/competitive/radioactivity; filed as Kd, often an IC50 or EC50 that approximates it; bounds were set here for any values at or beyond the usual limits of such assays
# conditions: source organism: SARS coronavirus Tor2
measured attribute: Kd (nM)

{"record sequence": "SELVIGAVII", "system tested": "HLA-B*44:02", "measured attribute": "Kd", "quantity unit": "nM", "qualifier sign": "=", "assay value": 1690}
{"record sequence": "YEQYIKWPWY", "system tested": "HLA-B*44:02", "measured attribute": "Kd", "quantity unit": "nM", "qualifier sign": "=", "assay value": 41.6}
{"record sequence": "TEKSNVVRG", "system tested": "HLA-B*44:02", "measured attribute": "Kd", "quantity unit": "nM", "qualifier sign": "=", "assay value": 11900}
{"record sequence": "KEGFFTYLCG", "system tested": "HLA-B*44:02", "measured attribute": "Kd", "quantity unit": "nM", "qualifier sign": "=", "assay value": 2620}
{"record sequence": "SEETGTLIV", "system tested": "HLA-B*44:02", "measured attribute": "Kd", "quantity unit": "nM", "qualifier sign": "≥", "assay value": 50100}
{"record sequence": "KENDSKEGFF", "system tested": "HLA-B*44:02", "measured attribute": "Kd", "quantity unit": "nM", "qualifier sign": "=", "assay value": 39.8}
{"record sequence": "YECLYRNRDV", "system tested": "HLA-B*44:02", "measured attribute": "Kd", "quantity unit": "nM", "qualifier sign": "=", "assay value": 5550}
{"record sequence": "AEMDGIQYG", "system tested": "HLA-B*44:02", "measured attribute": "Kd", "quantity unit": "nM", "qualifier sign": "=", "assay value": 11.4}
{"record sequence": "LEWLAEVVKL", "system tested": "HLA-B*44:02", "measured attribute": "Kd", "quantity unit": "nM", "qualifier sign": "=", "assay value": 9310}
{"record sequence": "GEDIQLLKA", "system tested": "HLA-B*44:02", "measured attribute": "Kd", "quantity unit": "nM", "qualifier sign": "=", "assay value": 13600}
